Biological target: UniProt:P41594
Assay: Cell-based functional Ca2+ mobilization assay (FDSS), potentiation of glutamate EC20 response, HEK293A cells transfected with human mGluR5a (H10H or H12H cell line)
Details: HEK293-A, H10H cell line expressing recombinant human mGluR5; in presence of glutamate EC20; % of maximal glutamate response; ** = compound is an antagonist
Readout label: Emax (%)

{"Compound": "O=C(c1cccc(F)c1)N1CCn2nc(OCc3ccccc3)cc2C1 [Example B2]", "Emax [%]": 46}
{"Compound": "CCC(C)C(=O)N1CCn2nc(OCc3ccccc3)cc2C1 (centres unmarked) [Example B75]", "Emax [%]": 27}

A. O=C(c1ccsc1)N1CCn2nc(OCc3ccccc3)cc2C1 [Example B60]
B. O=C(c1ccc(F)cc1)N1CCn2nc(OCc3cc[n+]([O-])cc3)cc2C1 [Example B135]
Two entries are listed, A and B . Which one carries the higher Emax? Please reply using the label of the selected record.
A
(A: 61%, B: 38%)

====

Biological target: human mGluR5 (Homo sapiens)
Assay: Cell-based functional Ca2+ mobilization assay (FDSS), potentiation of glutamate EC20 response, HEK293A cells transfected with human mGluR5a (H10H or H12H cell line)
Conditions: H10H cell line expressing recombinant human mGluR5; in presence of glutamate EC20; ** = compound is an antagonist; read-out: pEC50 (converted)
Readout label: EC50

{"Compound": "O=C(c1ccc(F)cc1)N1CCn2nc(OCc3ccnc(C(F)(F)F)c3)cc2C1 [Example B123]", "EC50": "≥ 10 µM"}
{"Compound": "O=C(CC(F)(F)F)N1CCn2nc(OCc3ccccc3)cc2C1 [Example B69]", "EC50": "> 30.2 µM"}
{"Compound": "Cc1ccoc1C(=O)N1CCn2nc(OCc3ccccc3)cc2C1 [Example B54]", "EC50": "> 30.2 µM"}
{"Compound": "CCOCC(=O)N1CCn2nc(OCc3ccccc3)cc2C1 [Example B27]", "EC50": "> 30.2 µM"}

N#Cc1cc(F)cc(C(=O)N2CCn3nc(OCc4cccc(F)c4)cc3C2)c1 [Example B101] yielded EC50 of > 30.2 µM

Per the records, this compound ( CS(=O)(=O)c1cccc(COc2cc3n(n2)CCN(C(=O)c2ccc(F)cc2)C3)c1 [Example B122] ) has EC50 equal to > 30.2 µM

====

Target: UniProt:P41594
Assay: Cell-based functional Ca2+ mobilization assay (FDSS), potentiation of glutamate EC20 response, HEK293A cells transfected with human mGluR5a (H10H or H12H cell line)
Conditions: H10H cell line expressing recombinant human mGluR5; in presence of glutamate EC20; ** = compound is an antagonist; read-out: pEC50 (converted)
# EC50 per record follows

Completed entries (count: 3):
{"Smiles text": "Cc1cccc(C(=O)N2CCn3nc(OCc4ccccc4)cc3C2)n1", "EC50": "> 10 µM"}
{"Smiles text": "Cc1ncc(C(=O)N2CCn3nc(OCc4ccccc4)cc3C2)cn1", "EC50": "> 30.2 µM"}
{"Smiles text": "O=C(c1ccc(F)cc1)N1CCn2nc(OCc3ccncc3Cl)cc2C1", "EC50": "≥ 10 µM"}

# compound N#Cc1ccc(COc2cc3n(n2)CCN(C(=O)c2ccccc2)C3)cc1 ; its EC50 = > 30.2 µM

Quick note, EC50 for CCOc1ccccc1C(=O)N1CCn2nc(OCc3ccccc3)cc2C1 landed at > 30.2 µM

// recorded EC50 for O=C(CCC(F)(F)F)N1CCn2nc(OCc3ccccc3)cc2C1 : > 30.2 µM

Recorded EC50 (compound COc1ccc(COc2cc3n(n2)CCN(C(=O)c2ccc(F)cc2)C3)cc1 ): > 30.2 µM

====

Readout label: melting point (°C)

Past entries and their recorded results:
{"Smiles text": "COc1ccccc1COc1cc2n(n1)CCN(C(=O)c1ccc(F)cc1)C2", "Readout label": "melting point", "Numeric result": 135.6}
{"Smiles text": "O=C(c1cccc(F)c1F)N1CCn2nc(OCc3ccccc3)cc2C1", "Readout label": "melting point", "Numeric result": 122.7}

A. N#Cc1cccc(COc2cc3n(n2)CCN(C(=O)c2ccccc2Cl)C3)c1
B. O=C(c1ccc(F)cc1F)N1CCn2nc(OCc3ccccc3)cc2C1
C. Cc1cccc(C(=O)N2CCn3nc(OCc4ccccc4)cc3C2)n1
Order the records by melting point, with each subsequent value no larger than the one before. # respond with the labels, arranged in the requested order
B, A, C
(B: 182.1 °C, A: 116.8 °C, C: 81.2 °C)

a. N#Cc1ccc(COc2cc3n(n2)CCN(C(=O)c2ccccc2)C3)cc1
b. COc1cccc(C(=O)N2CCn3nc(OCc4ccccc4)cc3C2)n1
From the items above, decide which of a and b has the lower melting point reading. I would appreciate it if you answered with the label of your choice.
b
(b: 97.1 °C, a: 155.6 °C)

====

Biological target: human mGluR5 (Homo sapiens, UniProt P41594)
Sequence (P41594 21-1180 isoform P41594-2 limits assumed): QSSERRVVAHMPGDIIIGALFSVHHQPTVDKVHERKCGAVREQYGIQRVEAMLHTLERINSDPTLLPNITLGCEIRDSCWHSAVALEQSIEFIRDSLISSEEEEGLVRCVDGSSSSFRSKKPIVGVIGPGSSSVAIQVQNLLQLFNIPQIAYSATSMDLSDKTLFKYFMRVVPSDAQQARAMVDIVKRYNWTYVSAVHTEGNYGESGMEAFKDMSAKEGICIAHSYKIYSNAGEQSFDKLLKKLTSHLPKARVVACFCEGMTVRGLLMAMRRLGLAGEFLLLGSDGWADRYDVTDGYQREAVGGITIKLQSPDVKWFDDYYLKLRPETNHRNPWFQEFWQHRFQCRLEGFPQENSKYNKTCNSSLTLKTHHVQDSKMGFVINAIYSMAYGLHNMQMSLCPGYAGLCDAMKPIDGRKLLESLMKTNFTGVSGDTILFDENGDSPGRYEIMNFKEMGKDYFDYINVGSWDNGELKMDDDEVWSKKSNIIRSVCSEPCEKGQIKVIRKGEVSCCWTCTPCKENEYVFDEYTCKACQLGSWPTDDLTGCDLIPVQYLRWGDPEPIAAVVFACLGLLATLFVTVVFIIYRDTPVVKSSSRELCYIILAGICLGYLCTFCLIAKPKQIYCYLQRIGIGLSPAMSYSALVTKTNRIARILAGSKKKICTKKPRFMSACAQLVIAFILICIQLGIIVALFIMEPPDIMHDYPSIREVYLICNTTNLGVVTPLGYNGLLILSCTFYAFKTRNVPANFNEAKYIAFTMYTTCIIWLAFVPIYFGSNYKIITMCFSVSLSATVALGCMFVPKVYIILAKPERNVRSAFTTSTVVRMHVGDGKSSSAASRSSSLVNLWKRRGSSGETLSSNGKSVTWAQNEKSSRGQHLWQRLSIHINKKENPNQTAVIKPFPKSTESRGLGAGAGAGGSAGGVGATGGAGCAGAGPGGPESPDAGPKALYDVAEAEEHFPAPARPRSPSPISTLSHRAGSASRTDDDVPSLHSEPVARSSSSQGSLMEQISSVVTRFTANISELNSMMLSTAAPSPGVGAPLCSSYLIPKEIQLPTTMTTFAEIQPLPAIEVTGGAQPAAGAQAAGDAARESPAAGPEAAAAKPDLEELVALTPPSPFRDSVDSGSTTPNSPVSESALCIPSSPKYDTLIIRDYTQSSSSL
Assay: Cell-based functional Ca2+ mobilization assay (FDSS), potentiation of glutamate EC20 response, HEK293A cells transfected with human mGluR5a (H10H or H12H cell line)
Settings: HEK293-A, H10H cell line expressing recombinant human mGluR5; in presence of glutamate EC20; % of maximal glutamate response; ** = compound is an antagonist
Readout label: Emax (%)

Previously resolved entries follow.
{"Smiles text": "O=C(c1ccc(F)cc1)N1CCn2nc(OCc3ncccn3)cc2C1", "Readout label": "Emax", "Numeric result": 30}
{"Smiles text": "O=C(c1cc(F)cc(F)c1)N1CCn2nc(OCc3ccccc3F)cc2C1", "Readout label": "Emax", "Numeric result": 42}
{"Smiles text": "N#Cc1cccc(COc2cc3n(n2)CCN(C(=O)c2ccccc2)C3)c1", "Readout label": "Emax", "Numeric result": 48.5}

I. CO[C@](C(=O)N1CCn2nc(OCc3ccccc3)cc2C1)(c1ccccc1)C(F)(F)F
II. O=C(c1ccc(Cl)c(Cl)c1)N1CCn2nc(OCc3ccccc3)cc2C1
Given I and II , report the one with the higher recorded Emax. Kindly state the label of the option you pick.
II
(II: 39%, I: 15%)

A. COc1cccc(COc2cc3n(n2)CCN(C(=O)c2ccc(F)cc2)C3)c1
B. COc1ccc(COc2cc3n(n2)CCN(C(=O)c2ccc(F)cc2)C3)cc1
C. Cc1cccc(C(=O)N2CCn3nc(OCc4ccccc4)cc3C2)n1
rank_up(items): orders items by reported Emax in ascending numerical order. State the ranking by listing the labels in the requested order.
B, C, A
(B: 22%, C: 32%, A: 49%)

a. O=C(c1n[nH]c2ccccc12)N1CCn2nc(OCc3ccccc3)cc2C1
b. O=C(c1ccnc(F)c1)N1CCn2nc(OCc3ccccc3)cc2C1
c. O=C(c1cc(Cl)cc(Cl)c1)N1CCn2nc(OCc3ccccc3)cc2C1
# ascending order, key=Emax Answer by naming the labels in the order asked.
c, b, a
(c: 25%, b: 37%, a: 69%)

1. CC(C)(C)OCC(=O)N1CCn2nc(OCc3ccccc3)cc2C1
2. N#Cc1cc(F)cc(C(=O)N2CCn3nc(OCc4ccccc4)cc3C2)c1
Parameter metric = Emax. Return the lower-valued option from 1 and 2 . Answer by quoting the chosen item's label.
2

I. CC(C)(C)CCC(=O)N1CCn2nc(OCc3ccccc3)cc2C1
II. O=C(c1ccncc1)N1CCn2nc(OCc3ccccc3)cc2C1
Choose between I and II : whose measured Emax value is numerically larger? Pick one; state its label.
I
(I: 59%, II: 20%)

====

Target: human mGluR5 (Homo sapiens)
Experiment: Cell-based functional Ca2+ mobilization assay (FDSS), potentiation of glutamate EC20 response, HEK293A cells transfected with human mGluR5a (H10H or H12H cell line)
Details: HEK293-A, H10H cell line expressing recombinant human mGluR5; in presence of glutamate EC20; % of maximal glutamate response; ** = compound is an antagonist
Readout label: Emax (%)

Before answering, review these 2 worked examples.
{"Compound": "O=C(c1ncccn1)N1CCn2nc(OCc3ccccc3)cc2C1 [Example B51]", "Emax, %": 26}
{"Compound": "O=C(c1cccc(Cl)c1)N1CCn2nc(OCc3ccc(F)cc3)cc2C1 [Example B111]", "Emax, %": 49}

1. O=C(c1ccc(F)cc1)N1CCn2nc(OCc3ccccc3)cc2C1 [Example B1]
2. N#Cc1cc(COc2cc3n(n2)CCN(C(=O)c2ccc(F)cc2)C3)ccn1 [Example B127]
API: POST /compare with 1 and 2 ; response names the item with higher Emax. Answer = label.
1

====

Molecular target: human mGluR5 (Homo sapiens)
Experiment: Cell-based functional Ca2+ mobilization assay (FDSS), potentiation of glutamate EC20 response, HEK293A cells transfected with human mGluR5a (H10H or H12H cell line)
Conditions: H10H cell line expressing recombinant human mGluR5; in presence of glutamate EC20; ** = compound is an antagonist; read-out: pEC50 (converted)
Readout label: EC50 (µM)

P. O=C(c1ccsc1)N1CCn2nc(OCc3ccccc3)cc2C1 [Example B60]
Q. C[C@H]1Cn2nc(OCc3ccccc3)cc2CN1C(=O)c1ccc(Cl)n1C [Example B91]
R. O=C(c1ccc[nH]1)N1CCn2nc(OCc3ccccc3)cc2C1 [Example B57]
S. O=C(c1cc(F)cc(F)c1)N1CCn2nc(OCc3cccc(F)c3)cc2C1 [Example B94]
Ascending sort, EC50. Order the labels as requested and give them as your answer.
S, P, R, Q
(S: 0.0617 µM, P: 0.275 µM, R: 1.23 µM, Q: 3.63 µM)

1. O=C(c1ccc(F)cc1)N1CCn2nc(OCc3ccccc3)cc2C1 [Example B1]
2. O=C(COCc1ccccc1)N1CCn2nc(OCc3ccccc3)cc2C1 [Example B72]
// compare measured EC50 between 1 and 2 ; output the lower one // output: label of the selected item
1
